# cAMP EC50 annotations
TEST_TARGET: human MC3R (human, UniProt P41968 1-323)
Sequence (P41968 whole entry): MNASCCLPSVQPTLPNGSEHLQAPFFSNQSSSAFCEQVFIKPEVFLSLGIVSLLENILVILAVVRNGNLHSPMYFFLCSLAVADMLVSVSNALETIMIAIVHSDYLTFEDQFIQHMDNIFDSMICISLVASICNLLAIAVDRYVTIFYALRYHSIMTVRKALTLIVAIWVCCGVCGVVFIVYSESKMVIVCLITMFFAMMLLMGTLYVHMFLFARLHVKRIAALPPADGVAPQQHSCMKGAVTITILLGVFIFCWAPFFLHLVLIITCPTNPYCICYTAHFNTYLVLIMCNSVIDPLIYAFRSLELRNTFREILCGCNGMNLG
EXPERIMENT_SUMMARY: cell-based or functional assay
Positions of bridges follow the written chain, without caps; N, C: chain ends. Non-standard residues stand in square brackets, D forms with d. NMeW = CN[C@@H](Cc1c[nH]c2ccccc12)C(=O)O; NMeH = CN[C@@H](Cc1c[nH]cn1)C(=O)O; NMeR = CN[C@@H](CCCNC(=N)N)C(=O)O; Cit = NC(=O)NCCC[C@H](N)C(=O)O; Nle = CCCC[C@H](N)C(=O)O

- BINDER: "{CH2CO}-[dA][NMeH][dF]R[NMeW]C-NH2 (thioether N-6; SMILES C[C@H]1NC(=O)CSC[C@@H](C(N)=O)NC(=O)[C@H](Cc2c[nH]c3ccccc23)N(C)C(=O)[C@H](CCCNC(=N)N)NC(=O)[C@@H](Cc2ccccc2)NC(=O)[C@H](Cc2c[nH]cn2)N(C)C1=O) [CTX-1203]"
  UNIT_NAME: "nM"
  cAMP EC50: 2610
- BINDER: "Ac-RC[dA][Cit][dF]R[dW]C-NH2 (disulfide 2-8) [CTX-1286]"
  UNIT_NAME: "nM"
  cAMP EC50: 568
- BINDER: "Ac-R[Nle]CR[dF]RWC-NH2 (disulfide 3-8; SMILES CCCC[C@H](NC(=O)[C@H](CCCNC(=N)N)NC(C)=O)C(=O)N[C@H]1CSSC[C@@H](C(N)=O)NC(=O)[C@H](Cc2c[nH]c3ccccc23)NC(=O)[C@H](CCCNC(=N)N)NC(=O)[C@@H](Cc2ccccc2)NC(=O)[C@H](CCCNC(=N)N)NC1=O) [CTX-1228]"
  UNIT_NAME: "nM"
  cAMP EC50: 1.6
- BINDER: "Ac-RC[dA]R[dF][NMeR][dW]C-NH2 (disulfide 2-8; SMILES CC(=O)N[C@@H](CCCNC(=N)N)C(=O)N[C@H]1CSSC[C@@H](C(N)=O)NC(=O)[C@@H](Cc2c[nH]c3ccccc23)NC(=O)[C@H](CCCNC(=N)N)N(C)C(=O)[C@@H](Cc2ccccc2)NC(=O)[C@H](CCCNC(=N)N)NC(=O)[C@@H](C)NC1=O) [CTX-1284]"
  UNIT_NAME: "nM"
  cAMP EC50: 1040
- BINDER: "Ac-R[Nle]C[Cit]FRWC-NH2 (disulfide 3-8; SMILES CCCC[C@H](NC(=O)[C@H](CCCNC(=N)N)NC(C)=O)C(=O)N[C@H]1CSSC[C@@H](C(N)=O)NC(=O)[C@H](Cc2c[nH]c3ccccc23)NC(=O)[C@H](CCCNC(=N)N)NC(=O)[C@H](Cc2ccccc2)NC(=O)[C@H](CCCNC(N)=O)NC1=O) [CTX-1609]"
  UNIT_NAME: "nM"
  cAMP EC50: 407
- BINDER: "{CH2CO}-[dA]R[dF]RWC-NH2 (thioether N-6; SMILES C[C@H]1NC(=O)CSC[C@@H](C(N)=O)NC(=O)[C@H](Cc2c[nH]c3ccccc23)NC(=O)[C@H](CCCNC(=N)N)NC(=O)[C@@H](Cc2ccccc2)NC(=O)[C@H](CCCNC(=N)N)NC1=O) [CTX-1642]"
  UNIT_NAME: "nM"
  cAMP EC50: 83
